Values compiled from patent US20260262643A1.

# Test system: ryegrass, Italian
# protocol description: Test C postemergence
# Assay type: in vivo, Lolium multiflorum
# condition set: 125 g ai/ha, postemergence, 10 days; 0 to 100 scale, 0 no effect, 100 complete control
experimental endpoint: Plant response rating, Ryegrass, Italian
One number for each entry.

compound | Plant response rating, Ryegrass, Italian
Cc1ccc(-n2cnc(C(C)(C)O)n2)cc1C(=O)N1C[C@H](C)Oc2c(C)cccc21 | 90
CCn1cnc(-c2cccc(C(=O)N3C[C@H](C)Oc4c(Cl)cccc43)c2)n1 | 0
Cc1ccc(-n2cnc(C(C)C)n2)cc1C(=O)N1C[C@H](C)Oc2c(F)cccc21 | 90

Turning now to a further record.
// lookup Plant response rating, Ryegrass, Italian for CC(C)c1ncn(-c2cc3c(c(C(=O)N4C[C@H](C)Oc5c(Cl)cccc54)c2)CCC3)n1
50

====

# Test system: soybean
# protocol description: Test A preemergence
# Type: in vivo, Glycine max
# condition set: 500 g ai/ha, visual injury after 10 days, 0 to 100 scale, 0 is no effect, 100 is complete control
Can you tell me Plant response rating, Soybean for the items I'm about to list?

compound | target system | obs value
Cc1nc(C)n(-c2cccc(C(=O)N3C[C@H](C)Oc4c(Cl)cccc43)c2)n1 [Compound 142] | soybean | 0
Cc1cccc2c1OC(C(F)(F)F)CN2C(=O)c1ccnc(-n2cncn2)c1 (stereo not drawn) [Compound 144] | soybean | 100

Batch request: Plant response rating, Soybean for each of the following compounds.
1. CC(C)c1ncn(-c2cc(C(=O)N3C[C@H](C)Oc4c(Cl)cccc43)c3ccccc3c2)n1 [Compound 146]
2. Cc1cccc2c1O[C@@H](C)CN2C(=O)c1cccc(-n2cnn(C(C)C)c2=O)c1 [Compound 118]
3. CC(C)c1ncn(-c2ccc(OCC(F)(F)F)c(C(=O)N3C[C@H](C)Oc4c(Cl)cccc43)c2)n1 [Compound 141]
4. Cc1ccc(-n2cnc(C(C)(C)O)n2)cc1C(=O)N1C[C@H](C)Oc2c(Cl)cccc21 [Compound 149]
5. CC(C)c1ncn(-c2ccc(C#N)c(C(=O)N3C[C@H](C)Oc4c(Cl)cccc43)c2)n1 [Compound 140]

1. 20
2. 60
3. 80
4. 100
5. 100

# return Plant response rating, Soybean for each item in the list
1. COCCc1ncn(-c2cccc(C(=O)N3C[C@H](C)Oc4c(C)cccc43)c2)n1 [Compound 113]
2. CC(C)Cc1ncn(-c2cccc(C(=O)N3C[C@H](C)Oc4c(Cl)cccc43)c2)n1 [Compound 112]

[80, 50]

====

Please go through the items and note down their Plant response rating, Kochia.
# System: kochia
# protocol description: Test C preemergence
# Format: in vivo, Bassia scoparia
# condition set: Preemergence, 125 g ai/ha; 0 to 100 scale, 0 no effect, 100 complete control
Numbers only.

molecule | Plant response rating, Kochia
Cc1cccc2c1OC(C(F)(F)F)CN2C(=O)c1ccnc(-n2cnc(C(C)C)n2)c1 (single isomer, unassigned) [Compound 328] | 0
Cc1ccc(-n2cnc(CS(C)(=N)=O)n2)cc1C(=O)N1C[C@H](C)Oc2c(Cl)cccc21 (stereo partly shown) [Compound 403] | 60
Cc1ncn(-c2ccc(F)c(C(=S)N3C[C@H](C)Oc4c(C)cccc43)c2)n1 [Compound 362] | 70
C[C@H]1CN(C(=O)c2cccc(-n3cnc(OS(C)(=O)=O)n3)c2)c2cccc(Cl)c2O1 [Compound 356] | 0

Return reported Plant response rating, Kochia values for all items listed beneath this line.
1. CCOC[C@H]1CN(C(=O)c2cc(-n3cnc(C(C)C)n3)cc3c2OCO3)c2cccc(Cl)c2O1 [Compound 400]
2. CCc1ncn(-c2cc(C(=O)N3CC(C(F)(F)F)Oc4c(Cl)cccc43)ccn2)n1 (racemic) [Compound 334]
3. Cc1ccc(-n2cnc(C3(C#N)CCC3)n2)cc1C(=O)N1C[C@H](C)Oc2c(Cl)cccc21 [Compound 402]

50
40
90
